# Test System: DLG1_1, Q12959
# Assay: holdup assay
# Set-up: key: below the threshold = too weak to quantify, mostly under pKd 3.1 to 4
# Conditions: plain residues with an end cap or a label only (N-terminal biotin on a linker: ttds)
Measured Parameter: pKd

Sample records with pKd:
Binder | pKd
RHTTSTETAV [HPV30-E6, P36809] | 4.93
FHPLGADSQV [SLC2A1, P11166] | below the threshold
RLPKIKETTV [FRMPD4, Q14CM0] | 5.12
VDFPPKESSL [ACVR2A, P27037] | 3.71
QRQARSETLV [HPV59-E6, Q81964] | 5.05
SGSRPSATVV [HPV73-E6, Q82005] | 3.89
EVVHTPETSV [SLC16A3, O15427] | 3.87
NDPAWDETNL [ARHGEF7, Q14155;Q14155-1] | below the threshold

Ask | Quote pKd reported for SSLQSLETSV [ATP2B4, P23634] please.
Reply | 5

Ask | Hello, please tell me recorded pKd for this one: PVRVCEETSL [OTULIN, Q96BN8]
Reply | 4.35

Ask | Provide only the value of recorded pKd for PRVKPQRSKV [PPP1R13L, Q8WUF5]
Reply | below the threshold

Ask | Please give measured pKd of the following entry: EMDRRPATVV [PLCB4, Q15147]
Reply | 4.2

Ask | Look up pKd of RPLPRKVSQL [DOCK4, Q8N1I0] and report it.
Reply | below the threshold

Ask | # return recorded pKd for input RLQRRRETQV [HPV18-E6, P06463]
Reply | 5.26

Ask | Identify measured pKd associated with SKPTRRETEV [HPV35-E6, P27228]
Reply | 5.02

Ask | Give reported pKd value for DKDPHSETAL [TMIGD1, Q6UXZ0]
Reply | 3.77

Ask | Consider the binder KKYVDAETSL [SLC4A7, Q9Y6M7] and give its recorded pKd.
Reply | below the threshold
